Recorded protein stability index for the following variants
B1: KCNG1 (parent)
chain: LFVTVTAVNLSVSTLPSLREEEEQ

variants of: B1; assay: protein stability index of a GFP-peptide fusion (GPS, HEK-293T) (PSI 1-6); higher = more stable; conditions: c terminus: a fixed tail appended;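 further: lentivirally expressed fusions sorted by FACS into six bins by GFP to DsRed ratio, PSI derived from sequencing read proportions per bin multiplied by bin number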
# output: bare number, no unit

Would you please look over these solved cases?
LFVTVTAVNLSVSTDPSLREEEEQ : 3.09
LFVTVTEVNLSVSTLPSLREEEEQ : 3.03

Switching to the query record.
Query: Provide only the value of recorded protein stability index for `LFVTVTAVNLSVYTLPSLREEEEQ`
Result: 3.08
